Experiment: qHTS profiling of the MIPE4 collection as inhibitors of Plasmodium falciparum (DD2) proliferation (AID 743345)
Details: P. falciparum Dd2 in erythrocytes, SYBR Green DNA, 72 h; at 28.5 µM (top of the series) unless noted
Attribute: parasite growth remaining, % of DMSO control (lower = more inhibition)
endpoint.label: parasite growth remaining, % of DMSO control (lower = more inhibition) (%)

smiles.record | measured
CCCS(=O)(=O)Nc1ccc(F)c(C(=O)c2c[nH]c3ncc(Cl)cc23)c1F | 77.2
CC(C)C[C@H](NC(=O)[C@@H](O)[C@H](N)Cc1ccccc1)C(=O)O | 10.1
Cc1cnc(Nc2ccc(OCCN3CCCC3)cc2)nc1Nc1cccc(S(=O)(=O)NC(C)(C)C)c1 | 25.8

###

System: DIV17
Assay: qHTS profiling for inhibitors of Plasmodium falciparum proliferation (AID 504749); note: nearly all actives have a fitted effect of over 60% in size; note: potency is the fitted concentration of half-maximal effect
Details: P. falciparum in erythrocytes, SYBR Green DNA, 72 h; series mostly up to 28.7 µM
Description: NIH National Institute of Allergy and Infectious Diseases [NIAID] NIH Chemical Genomics Center [NCGC] […] Because mature erythrocytes lack DNA, only Plasmodium-derived DNA is detected. NCGC Assay Protocol Summary: The SYBR Green viability assay was adapted from a method described previously (Plouffe et al., 2008). […] The following morning, fluorescence intensity at 485(14) nm excitation and 535(25) nm emission wavelengths was measured on an EnVision (Perkin Elmer) plate reader. […]
Inconclusive results are not listed. The source made the active and inactive calls. Calls come from the whole dose curve; as a rule, active = well fitted inhibition curve with a large enough effect; inconclusive = small, poorly fitted or top-dose-only effect; inactive = flat fitted curve, though single readings scatter.

molecule | measured.on | Potency
NNCCc1ccccc1 | DIV17 | inactive
Oc1ccc(C2CNCCc3c2cc(O)c(O)c3Cl)cc1 (configuration not stated) | DIV17 | inactive
CC(c1cc2ccccc2s1)N(O)C(N)=O (configuration not stated) | DIV17 | inactive
CCOC(=O)C1=C[C@@]2(CC)CCCN3CCc4c(n1c1ccccc41)[C@H]32 | DIV17 | 7.57 µM (active)
N=c1nc(N2CCCCC2)cc(N)n1O | DIV17 | inactive
NC(N)=NC(=O)c1nc(Cl)c(N)nc1N | DIV17 | 6.75 µM (active)
C#Cc1cccc(Nc2ncnc3cc(OCCOC)c(OCCOC)cc23)c1 | DIV17 | 15.1 µM (active)

###

Assay: qHTS for identification of novel therapeutic agents for treatment of microphthalmiaassociated transcription factor (MiT) renal cell carcinoma (RCC) (AID 1963991);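 note: curves scaled with 100% = DMSO viability and 0% = empty wells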
Conditions: TFE3-RCC viability, CellTiter-Glo, 48 h; measured here: UOK145 Z-AUC; stronger effect = lower value
Inconclusive results are not listed.
Label YES when z-score < 0.2; otherwise NO.

compound | label.class
CCC(C)N(C)C(=O)c1cc2ccccc2c(-c2ccccc2Cl)n1 (stereo not drawn) | YES
O=C1CCc2cc(OCCCCc3nnnn3C3CCCCC3)ccc2N1 | NO
C[C@]12CC[C@H](O)CC1=CC[C@@H]1[C@H]2CC[C@]2(C)C(c3cccnc3)=CC[C@H]12 | NO
COc1nc(-c2ccc3c(c2)OCO3)n(-c2ccc(NC(=O)CSc3ccccc3)cc2)n1 | NO
Cc1cc(SCc2sc(-c3ccc(C(F)(F)F)cc3)nc2C)ccc1OCC(=O)O | NO
CC(C[N+](C)(C)C)OC(N)=O (stereo not drawn) | NO
Oc1ccc(C2CNCCc3c2cc(O)c(O)c3Cl)cc1 (stereo not drawn) | NO
Nc1ccc(S(=O)(=O)Nc2ccnn2-c2ccccc2)cc1 | NO
CCc1ccc(CCOc2ccc(CC3SC(=O)NC3=O)cc2)nc1 (stereo not drawn) | NO
O=C(O)CCc1ccc(NCc2cccc(Oc3ccccc3)c2)cc1 | YES
NS(=O)(=O)c1cc2c(cc1Cl)NC=NS2(=O)=O | NO
OC(CN1CCC(Cc2ccc(F)cc2)CC1)c1ccc(Cl)cc1 (stereo not drawn) | NO
CCN(CC)CCCC(C)Nc1nc(C)cc(Nc2ccc3nc(C)cc(N)c3c2)n1 (stereo not drawn) | NO
COc1ccccc1-c1cccc(-c2c(O)c3cc(C#N)c(Cl)cc3[nH]c2=O)c1 | NO
CCOc1ccc(Cc2cc([C@@H]3O[C@H](CO)[C@@H](O)[C@H](O)[C@@H]3O)ccc2Cl)cc1 | NO
CC(c1cc2ccccc2s1)N(O)C(N)=O (stereo not drawn) | YES
OC(CCN1CCCCC1)(c1ccccc1)C1CC2C=CC1C2 (stereo not drawn) | NO
O=c1[nH]cnc2[nH]ncc12 | YES

###

Assay: Quantitative High-Throughput drug screen in 47 multiple myeloma cell lines against the NCATS MIPE library collection: Delta47_JCRB cell viability assay (AID 1918925; note: nearly all actives have a fitted effect of over 45% in size)
Conditions: Delta47 myeloma viability, CellTiter-Glo ATP, 48 h; series mostly up to 45.8 µM
Results filed as inconclusive are left out. Activity calls are given as the source filed them. The call rests on the fitted dose curve; in most records, active means well fitted cell-killing curve with a large enough effect; inconclusive means small, poorly fitted or top-dose-only effect, or effect the other way; inactive means no such curve, though single readings can be large or run the other way.
Possible outcomes: active, inactive

compound | label.class
COCCNCCCn1c(C(=O)CF)c(-c2ccc(C)cc2)c2c(N)ncnc21 | inactive
COc1nc(-c2ccc3c(c2)OCO3)n(-c2ccc(NC(=O)CSc3ccccc3)cc2)n1 | inactive
CS(=O)(=O)c1cccc(CNc2nc(Nc3ccc4c(c3)CCC(=O)N4)ncc2C(F)(F)F)c1 | active
CO[C@@H]1[C@H](N(C)C(=O)c2ccccc2)C[C@H]2O[C@]1(C)n1c3ccccc3c3c4c(c5c6ccccc6n2c5c31)C(=O)NC4 | active
CCN(c1ccccc1)c1cc(NC)[n+](C)c(C)n1 | inactive
CCN(CC)CCCC(C)Nc1nc(C)cc(Nc2ccc3nc(C)cc(N)c3c2)n1 (stereo not given) | active
C[C@]12CC[C@H](O)CC1=CC[C@@H]1[C@H]2CC[C@]2(C)C(c3cccnc3)=CC[C@H]12 | inactive
OCCn1cc(-c2cnc3nnn(Cc4ccc5ncccc5c4)c3n2)cn1 | inactive
COCC(=O)NCC=Cc1ccc2ncnc(Nc3ccc(Oc4ccc(C)nc4)c(C)c3)c2c1 | active
Nc1ccc(S(=O)(=O)Nc2ccnn2-c2ccccc2)cc1 | inactive
CN[C@@H](C)C(=O)N[C@H]1CCCC[C@H]2CC[C@@H](C(=O)N[C@@H](c3ccccc3)c3cn(CCCCc4ccc(CCCCn5cc([C@@H](NC(=O)[C@@H]6CC[C@@H]7CCCC[C@H](NC(=O)[C@H](C)NC)C(=O)N76)c6ccccc6)nn5)cc4)nn3)N2C1=O | active
NC(=O)c1ccc(I)c([N+](=O)[O-])c1 | active
CNC[C@H](O)c1cccc(O)c1 | inactive
COc1cc2c(cc1OC)CN(CCc1ccc(NC(=O)c3cccc4c(=O)c5cccc(OC)c5[nH]c34)cc1)CC2 | inactive
O=C(Nc1cccnc1)N1CCC(Cc2cccc(Oc3ccc(C(F)(F)F)cn3)c2)CC1 | active
CC(C)C[C@H](NC(=O)[C@@H](O)[C@H](N)Cc1ccccc1)C(=O)O | active
Cc1ccc(N(CC2=NCCN2)c2cccc(O)c2)cc1 | inactive
CC(C)(C)NCC(O)c1ccc(O)c(CO)c1 (stereo not given) | inactive
S=C(NCc1ccc2c(c1)OCO2)N1CCN(c2ncnc3c2oc2ccccc23)CC1 | active
Cc1cn[nH]c1 | active

###

Assay: qHTS drug screen for cell cycle checkpoint inhibitors in PARPi-resistant BRCA-mutant ovarian cancer cell lines. (AID 1963452)
Settings: PEO1/OlaR viability, CellTiter-Glo luminescence, 96 h; stronger effect = lower value
Attribute: Z-AUC
endpoint.label: Z-AUC

smiles.record | endpoint.label | measured
Cc1cc([C@@H](C)Nc2ccccc2C(=O)O)c2nc(N3CCOCC3)cc(=O)n2c1 | Z-AUC | 0.266
CCc1cc(Nc2nccc(-c3c(-c4ccc(OC)c(C(=O)Nc5c(F)cccc5F)c4)nc4ccccn34)n2)c(OC)cc1N1CCC(N2CCN(S(C)(=O)=O)CC2)CC1 | Z-AUC | -0.4
O=C(Nc1nc2ccccc2n1CCN1CCOCC1)c1cccc([N+](=O)[O-])c1 | Z-AUC | 1.54
CC(=O)Oc1ccccc1C(=O)O | Z-AUC | 0.925
CS(=O)(=O)Oc1ccc2c(NC(N)=O)c(C(=O)c3ccc(Cl)cc3Cl)oc2c1 | Z-AUC | 1.2
CNC(=O)c1ccc(C)c(-n2c(C)cc(OCc3ccc(F)cc3F)c(Br)c2=O)c1 | Z-AUC | -0.231
Cc1cc2c(C(C)C)c(O)c(O)c(C=O)c2c(O)c1-c1c(C)cc2c(C(C)C)c(O)c(O)c(C=O)c2c1O | Z-AUC | 1.05
CCC(=O)N[C@H]1CC[C@H](C(=O)N(C)c2ccc(-c3nc4ccccc4o3)cc2)C1 | Z-AUC | -0.0495
Cc1cn[nH]c1 | Z-AUC | 1.01
Cc1oncc1C(=O)Nc1ccc(C(F)(F)F)cc1 | Z-AUC | 0.594
CCCc1nc2c(C)cc(-c3nc4ccccc4n3C)cc2n1Cc1ccc(-c2ccccc2C(=O)O)cc1 | Z-AUC | 0.748
Cn1cnc([N+](=O)[O-])c1Sc1ncnc2nc[nH]c12 | Z-AUC | -0.621
CC(C)C[C@H](NC(=O)[C@@H](O)[C@H](N)Cc1ccccc1)C(=O)O | Z-AUC | 0.8
NC[C@H](O)c1ccc(O)c(O)c1 | Z-AUC | -0.408
CCCC(CCC)C(=O)O | Z-AUC | 0.56
O=c1[nH]c(-c2ccc(C(F)(F)F)cc2)nc2c1CSCC2 | Z-AUC | 0.604
CN(C(=O)c1ccc(F)cc1C(F)(F)F)C1CCN(c2nnc(-c3ccnn3C)c3ccccc23)CC1 | Z-AUC | -0.541
CN1CCN(CCCN2c3ccccc3Sc3ccc(C(F)(F)F)cc32)CC1 | Z-AUC | 0.668
CCC(C)(C)C(=O)O[C@H]1C[C@@H](C)C=C2C=C[C@H](C)[C@H](CC[C@@H]3C[C@@H](O)CC(=O)O3)[C@H]21 | Z-AUC | 1.29
Nc1ncnc2nc(-c3ccc(N4CCOCC4)nc3)cc(-c3cccc(Br)c3)c12 | Z-AUC | 0.819
C1COC(NC(C2CC2)C2CC2)=N1 | Z-AUC | -0.361
O=NN(CCCl)C(=O)NCCCl | Z-AUC | 0.732
Cc1cccc(-c2nn(C(=S)Nc3ccccc3)cc2-c2ccnc3ccccc23)n1 | Z-AUC | 0.884
O=c1ncn2nc(Sc3ccc(F)cc3F)ccc2c1-c1c(Cl)cccc1Cl | Z-AUC | -0.105
Cc1[nH]c(=O)c(C#N)cc1-c1ccncc1 | Z-AUC | -0.809
